targetUnderTest: Human FXIa (Homo sapiens, UniProt P03951)
Construct: Human FXIa (Enzyme Research Laboratories) was incubated; purchased Enzyme Research Laboratories
Sequence (P03951 388-625 limits assumed): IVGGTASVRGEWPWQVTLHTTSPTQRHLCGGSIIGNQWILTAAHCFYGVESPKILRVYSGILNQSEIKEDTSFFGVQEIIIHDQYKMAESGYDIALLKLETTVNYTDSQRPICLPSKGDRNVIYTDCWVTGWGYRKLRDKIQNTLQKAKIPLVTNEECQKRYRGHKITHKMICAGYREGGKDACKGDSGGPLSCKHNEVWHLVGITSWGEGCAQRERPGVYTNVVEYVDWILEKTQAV
Sequence (P03951 19-387 partner limits assumed): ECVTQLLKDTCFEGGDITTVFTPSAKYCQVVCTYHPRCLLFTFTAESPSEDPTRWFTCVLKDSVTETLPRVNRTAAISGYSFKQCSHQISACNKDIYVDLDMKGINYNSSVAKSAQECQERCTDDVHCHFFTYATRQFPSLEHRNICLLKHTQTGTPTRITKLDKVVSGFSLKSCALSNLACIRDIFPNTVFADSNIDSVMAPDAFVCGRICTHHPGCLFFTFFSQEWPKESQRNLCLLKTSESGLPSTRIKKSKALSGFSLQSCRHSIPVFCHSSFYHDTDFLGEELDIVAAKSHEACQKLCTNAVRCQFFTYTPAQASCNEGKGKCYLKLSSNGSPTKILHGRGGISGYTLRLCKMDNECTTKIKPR
testDetails: FXIa inhibitory activity in vitro (fluorogenic substrate Z-Gly-Pro-Arg-AFC), selectivity
Type: biochemical
measurementContext: category scale, 25° C.
Procedure: Determination of the % Inhibition for FXIa Human FXIa (Enzyme Research Laboratories) was incubated at 25° C. with the fluorogenic substrate Z-Gly-Pro-Arg-AFC and various concentrations of the test compound. Residual enzyme activity (initial rate of reaction) was determined by measuring the change in fluorescence at 410 nm and the IC50 value for the test compound was determined.
pIC50: −log10 of the molar value.
measurementType: pIC50

[[record]]
molecule = "CC(C)N[C@H](CCCCN1CCCCC1)C(=O)N1CC[C@H]1C(=O)NCc1ccc2c(N)nccc2c1"
datavalue = "< 4.40"

[[record]]
molecule = "Nc1nccc2cc(CNC(=O)C3CC4CCC3N(C(=O)[C@H](N)CCc3ccccc3)C4)ccc12 (stereo partly drawn)"
datavalue = "5.52 to 6.00"

[[record]]
molecule = "CC(C)N[C@H](CCCCN1CCCCC1)C(=O)N[C@@H](Cc1ccc(F)c(F)c1)C(=O)NCc1cnc2[nH]cc(Cl)c2c1"
datavalue = "< 4.40"

[[record]]
molecule = "C[C@H](NC(=O)[C@@H](N)CCc1ccccn1)C(=O)NCc1ccc2c(N)nccc2c1"
datavalue = "< 4.40"

[[record]]
molecule = "C[C@H](NC(=O)[C@H]1C[C@H](c2ccccc2)CN1)C(=O)NCc1ccc2c(N)nccc2c1"
datavalue = "5.00 to 5.52"

[[record]]
molecule = "CC(C)(NS(=O)(=O)c1ccc2ccccc2c1)C(=O)NCc1ccc2c(N)nccc2c1"
datavalue = "4.40 to 5.00"

[[record]]
molecule = "Nc1nccc2cc(CNC(=O)[C@H](Cc3ccc(F)c(F)c3)NC(=O)[C@H](N)CCCCN3CCCCC3)ccc12"
datavalue = "< 4.40"

[[record]]
molecule = "CC(C)n1ccc(C(=O)N[C@@H](Cc2ccc(F)c(F)c2)C(=O)NCc2ccc3c(N)nccc3c2)cc1=O"
datavalue = "< 4.40"

[[record]]
molecule = "C[C@@H]1CCC[C@H](C)N1CC(=O)N[C@H]1CCC[C@@H]1C(=O)NCc1ccc2c(N)nccc2c1"
datavalue = "< 4.40"

[[record]]
molecule = "CC(C)N[C@H](CCCCN1CCCCC1)C(=O)N[C@@H](Cc1ccc(-c2ccccc2)cc1)C(=O)NCc1ccc2c(N)nccc2c1"
datavalue = "< 4.40"

[[record]]
molecule = "N[C@H](CCCCN1CCN(c2ncccn2)CC1)C(=O)N1CC[C@H]1C(=O)NCc1ccc2[nH]cc(Cl)c2c1"
datavalue = "< 4.40"

[[record]]
molecule = "C[C@@H]1CCC[C@H](C)N1CC(=O)N1C[C@H](c2ccccc2)C[C@H]1C(=O)NCc1ccc2c(N)nccc2c1"
datavalue = "4.40 to 5.00"

[[record]]
molecule = "CC(NC(=O)[C@H](N)CCc1ccccc1)C(=O)NCc1ccc2ccnc(N)c2c1 (stereo partly drawn)"
datavalue = "< 4.40"

[[record]]
molecule = "C[C@@H]1CCC[C@H](C)N1CC(=O)N1CC(C(=O)NCc2ccc3c(N)nccc3c2)C1"
datavalue = "< 4.40"

[[record]]
molecule = "C[C@H](NC(=O)[C@H](N)CCc1ccccc1)C(=O)NCc1ccc2c(N)nccc2c1"
datavalue = "4.40 to 5.00"

